assay: P-glycoprotein substrates identified in KB-8-5-11 adenocarcinoma cell line, qHTS therapeutic library screen (AID 1346987); settings: KB-8-5-11 (P-gp overexpressing) viability, CellTiter-Glo, 72 h; series mostly up to 44.5 µM; note: nearly all actives have a fitted effect of over 65% in size
Inconclusive results are not listed. Calls of active or inactive are those of the source. Calls come from the whole dose curve; as a rule, active = well fitted inhibition curve with a large enough effect; inconclusive = small, poorly fitted or top-dose-only effect; inactive = flat fitted curve, though single readings scatter.
Response enum: t (active), f (inactive)

Below are worked cases with known answers.
- compound: "O=C(Nc1ccccc1C(=O)Nc1ccc(CCO)cc1)c1ccc([N+](=O)[O-])cc1"
  group.label: "f"
- compound: "C[C@@H](NC(=O)c1ccc(C#Cc2cccc(F)c2)cn1)C(C)(C)O"
  group.label: "f"
- compound: "Cc1cc2c(c(=O)o1)C=C1CC[C@H]([C@H](C)Cn3cnc(=N)c4[nH]cnc43)C[C@@H]1O2"
  group.label: "f"

# outcome recorded in this test, key = Cc1cc2occ(CN(C)CCN(C)Cc3cn(-c4cccc(C(F)(F)F)c4)c4ccccc34)c(=O)c2cc1C
t

Entry CCCCCCCCCCCCCCCCCC(=O)OCCO please
f

Entry CC(C)NC(=O)COc1cccc(-c2nc(Nc3ccc4[nH]ncc4c3)c3ccccc3n2)c1 please
t

----------
test system: Hek293T; test: Primary qHTS to identify gynecologic anti-cancer compounds using libraries of approved drugs and bioactive compounds (AID 1345084); details: Gynecologic cancer cell panel viability, ATPlite luminescence, 48 h, control line for the selectivity index; series mostly up to 57.5 µM; note: nearly all actives have a fitted effect of over 55% in size
Inconclusive results are not listed. Active and inactive are the calls of the source. Calls come from the whole dose curve; as a rule, active = well fitted cell-killing curve with a large enough effect; inconclusive = small, poorly fitted or top-dose-only effect, or effect the other way; inactive = flat fitted curve, though single readings scatter.
Response enum: active, inactive

- compound: "Cc1cc2sc(NC(=O)Cc3ccccc3)nc2cc1Cl"
  group.label: "inactive"
- compound: "C=C[C@@]1(C)C=C2C(=O)C(O)=C3[C@](C)(C(=O)O)CC[C@@H]4C[C@]34[C@]2(O)C(=O)C1"
  group.label: "active"
- compound: "COc1ccc(CCN(C)CCCOc2nsc(-c3ccccc3)n2)cc1OC"
  group.label: "inactive"
- compound: "C=C[C@]1(C)C[C@H](O)[C@H]2C(=C)C(=O)O[C@@H]2[C@H]1C(=C)CO"
  group.label: "inactive"

# outcome recorded in this test, key = Cc1cc(OCCCS(C)(=O)=O)cc(C)c1-c1cccc(COc2ccc3c(c2)OCC3CC(=O)O)c1 (stereo not given)
inactive

----------
tested on: C33A; test: Primary qHTS to identify gynecologic anti-cancer compounds using libraries of approved drugs and bioactive compounds (AID 1345084); conditions: Gynecologic cancer cell panel viability, ATPlite luminescence, 48 h; series mostly up to 57.5 µM; note: nearly all actives have a fitted effect of over 55% in size
Records with an inconclusive call do not appear. Active and inactive are the calls of the source. Calls follow the shape of the dose curve; as a rule, active = well fitted cell-killing curve with a large enough effect; inconclusive = small, poorly fitted or top-dose-only effect, or effect the other way; inactive = flat fitted curve, though single readings scatter.
Response enum: active, inactive

Below are worked cases with known answers.
- molecule: "CCC(C)CNCC(=O)N1CCC2SC=CC2C1COc1cccc(C)c1 (stereo not given)"
  group.label: "inactive"
- molecule: "COc1cc2ncnc(Nc3cccc(I)c3)c2cc1OC"
  group.label: "inactive"
- molecule: "OC1(CN2CCC(COc3noc4cccc(O[C@@H]5CCOC5)c34)CC2)CCOCC1"
  group.label: "inactive"
- molecule: "CCOc1cn(-c2ccc(F)cc2C)nc1C(=O)Nc1ccc(Oc2ccnc3cc(OC)c(OC)cc23)c(F)c1"
  group.label: "inactive"
- molecule: "O=C(Nc1ccc(N(Cc2ccsc2)C(=O)Cn2nnc3ccccc32)cc1)C1CC1"
  group.label: "inactive"

# outcome recorded in this test, key = C=C1CCCC2(C)CCC(C(C)(C)OC3OC(C)C(O)C(O)C3OC(=O)/C(C)=C\C)CC12 (stereo not given)
inactive

Entry CC1(C(=O)Nc2ccc(F)nc2)CCCN1c1nc(Nc2cc(C3CC3)[nH]n2)c2cccn2n1 (stereo not given) please
inactive

Entry O=[N+]([O-])c1ccc(Oc2ccc3c(c2)CCC(c2ccccc2)O3)nc1 (stereo not given) please
inactive

Entry C=C1C(=O)O[C@@H]2C[C@H](C)[C@@H]3CC(=O)C(C)=C3C[C@H]12 please
active

Entry O=C(Cc1c(F)cccc1F)Nc1cc(OCc2ccc(Cl)cc2)ccn1 please
inactive

Entry CC[C@H](C(=O)Nc1ccccc1N1CCCC1)c1ccccc1 please
inactive

Entry O=C(OC1CN2CCC1CC2)N1CCc2ccccc2C1c1ccccc1 (stereo not given) please
inactive

Entry Cc1ccc(-c2ncccn2)c(C(=O)N2C[C@H](COc3ccc(F)cn3)CC[C@H]2C)c1 please
inactive

Entry COc1ccc(C2(CNC(=O)c3ccc(NC(=O)c4ccco4)cc3)CCOCC2)cc1 please
inactive

Entry Fc1ccc(-c2cncc(CN3CCN(c4cccc5c4OCCO5)CC3)c2)cc1 please
inactive

Entry Nc1nc2c(c(N3CC[C@@H](N)C3)n1)CCCc1ccccc1-2 please
inactive

Entry Fc1ccc(N2CCCCC2)c(NC(=S)c2ccncc2)c1 please
inactive
